The reported measurements were obtained from patent US6723732B1.

# method-summary: Percutaneous administration to anesthetized rats (glass cell on abdominal skin), plasma concentration by HPLC and residual drug recovery
# Format: in vivo, rat (Jcl SD strain)
# assay-context: Jcl SD, rat, plasma, topical or ocular, 2 mg/kg, 2 mg/kg percutaneous; phosphate salt 1.4 mg/mL in 2.5% 1-menthol/20% ethanol/77.5% distilled water; N=3
# Experimental: (I) A base was composed of 2.5% 1-menthol/20% ethanol/77.5% distilled water. The phosphate salt of Compound (I-1) as an active ingredient was dissolved or dispersed in it at concentrations of 1.4, 5.6, and 11.2 mg/mL. […] The percent of apparent absorption was calculated by the difference between the initial dose and the recovered amount at 8 hrs. AUC and MRT were calculated from plasma concentration profiles measured by HPLC. […]

{"columns": ["smiles-structure", "value-units", "MRT"],
 "data": [
  ["c1cc(-c2nc3c4c(ncc3[nH]2)CCOC4)no1", "h", 3.4]
]}

* * *

# method-summary: Percutaneous administration to anesthetized rats (glass cell on abdominal skin), plasma concentration by HPLC and residual drug recovery
# Assay type: in vivo, rat (Jcl SD strain)
# assay-context: Jcl SD, rat, plasma, topical or ocular, 16 mg/kg, 16 mg/kg percutaneous; phosphate salt 11.2 mg/mL in 2.5% 1-menthol/20% ethanol/77.5% distilled water; N=3
measure: MRT (h)

{"columns": ["smiles-structure", "measure", "value-units", "value-observed"],
 "data": [
  ["c1cc(-c2nc3c4c(ncc3[nH]2)CCOC4)no1", "MRT", "h", 4]
]}

* * *

# method-summary: Percutaneous administration by strapping technique to conscious rats (rayon cloth on abdominal region), plasma concentration by HPLC
# Format: in vivo, rat (Jcl Wistar strain male)
# assay-context: male, Jcl Wistar, rat, plasma, topical or ocular; 4 mg/kg percutaneous (0.25 mL, 5 cm^2); aqueous base 3% 1-menthol/30% ethanol/67% pH 4 phosphate buffer, 5.6 mg/mL; conscious rats
# Experimental: The experiment was performed by the strapping technique under the conscious condition. Non-fasting rats (Jcl Wistar strain male rat 9-11 W) were cannulated in the jugular vein two days before the percutaneous administration experiment. […] Plasma concentrations were measured by HPLC. The rayon cloths were recovered at 24 hr after the administration and the residual drug was extracted by 30 mL of methanol in a 50 mL centrifuge tube and measured its concentration by HPLC. […]

{"columns": ["smiles-structure", "value-units", "Cmax"],
 "data": [
  ["c1cc(-c2nc3c4c(ncc3[nH]2)CCOC4)no1", "ng/mL", 170]
]}

* * *

# method-summary: Percutaneous administration to anesthetized rats (glass cell on abdominal skin), plasma concentration by HPLC and residual drug recovery
# Assay type: in vivo, rat (Jcl SD strain)
# assay-context: Jcl SD, rat, plasma, topical or ocular, 2 mg/kg, 2 mg/kg percutaneous; phosphate salt 1.4 mg/mL in 2.5% 1-menthol/20% ethanol/77.5% distilled water; blood to 8 hr; N=3

{"columns": ["smiles-structure", "AUC (ng·h/mL)"],
 "data": [
  ["c1cc(-c2nc3c4c(ncc3[nH]2)CCOC4)no1", 490]
]}

* * *

# method-summary: Percutaneous administration by strapping technique to conscious rats (rayon cloth on abdominal region), plasma concentration by HPLC
# Format: in vivo, rat (Jcl Wistar strain male)
# assay-context: male, Jcl Wistar, rat, plasma, topical or ocular; 2 mg/kg percutaneous; aqueous base pH 4, 5.6 mg/mL; conscious rats
# Protocol: The experiment was performed by the strapping technique under the conscious condition. Non-fasting rats (Jcl Wistar strain male rat 9-11 W) were cannulated in the jugular vein two days before the percutaneous administration experiment. […] Plasma concentrations were measured by HPLC. The rayon cloths were recovered at 24 hr after the administration and the residual drug was extracted by 30 mL of methanol in a 50 mL centrifuge tube and measured its concentration by HPLC. […]

{"columns": ["compound", "Tmax"],
 "data": [
  ["c1cc(-c2nc3c4c(ncc3[nH]2)CCOC4)no1 [Compound (I-1)]", "1.25 h"]
]}
